test: Kit225 T Cell Assay, IL-23-stimulated STAT-dependent luciferase reporter; format: cell-based; settings: Kit225 T cells, 20 ng/mL human recombinant IL-23, 5-6 hours, luciferase expression
Each item that follows carries a reported pIC50.
Convention used: pIC50 is expressed as -log10 of the molar concentration.

Solved cases below.
compound	pIC50
CN(C)c1nc(Nc2cc(N[C@@H]3CCCC[C@H]3O)nn3c(C#N)cnc23)ccc1C(=O)N1CCCC1	6.85
N#Cc1cnc2c(Nc3ccc(C(=O)N4CCCC4)c(N4CC(F)C4)n3)cc(N[C@H]3CCCC[C@@H]3O)nn12	6.19
CC(C)(C)NC(=O)c1cccc(Nc2cc(NC34CC5CC(CC(O)(C5)C3)C4)nn3c(C#N)cnc23)n1	6.38
CCC1(C)NC(=O)N(c2cccc(Nc3cc(N[C@@H]4CCCC[C@H]4O)nn4c(C#N)cnc34)n2)C1=O (some centres unmarked)	6.04
CCNc1nc(Nc2cc(N[C@H]3CCCC[C@@H]3O)nn3c(C#N)cnc23)ccc1C(=O)N1CCCC1	6.85

Entry under test: CS(=O)(=O)N1CCN(c2cccc(Nc3cc(N[C@@H]4CCCC[C@H]4O)nn4c(C#N)cnc34)n2)CC1 . Its pIC50 was 6.96

Entry under test: CN(CCc1ccccn1)C(=O)c1ccc(Nc2cc(N[C@@H]3CCCC[C@H]3O)nn3c(C#N)cnc23)nc1N(C)C . Its pIC50 was 6.19

Entry under test: CN(C)C1CCN(C(=O)c2ccc(Nc3cc(NC4CCOCC4)nn4c(C#N)cnc34)nc2OCC(F)F)C1 (centres unmarked) . Its pIC50 was 6.13
